Test system: HuH28 cells
Assay Metric: GI50

>>> observed_value("C=CC(=O)N[C@@H]1CC[C@H](Oc2ccc(C(F)(F)F)cn2)c2nc(Cl)ccc21 (relative stereo) [Compound 189]")
"< 3000 nM"
>>> observed_value("C=CC(=O)NCc1ccc(Oc2ccc(OC)cc2)c2nc(C)oc12 [Compound 280]")
"< 3000 nM"
>>> observed_value("C=CC(=O)NCc1ccc(Oc2ccc(C(F)(F)F)nc2)c2nc(CC)oc12 [Compound 251]")
"< 3000 nM"
>>> observed_value("C=CC(=O)NC1CC[C@H](Oc2cccc(Cl)c2)c2ncccc21 (stereo in doubt) [Compound 68]")
"< 3000 nM"
>>> observed_value("C=CC(=O)NCc1ccc(C(O)c2ccc(C(F)(F)F)cc2)c2nc(C)oc12 (centres unmarked) [Compound 268]")
"< 3000 nM"
>>> observed_value("C=CC(=O)NCc1ccc(OC2CCCCC2)c2nc(C)oc12 [Compound 276]")
"< 3000 nM"
>>> observed_value("C=CC(=O)NCc1ccc(S(=O)(=O)c2ccc(C(F)(F)F)cc2)c2nc(C)oc12 [Compound 271]")
"< 3000 nM"
>>> observed_value("C=CC(=O)NC1CCOc2c1ccc(Oc1ccc(C(F)(F)F)nc1)c2OC (centres unmarked) [Compound 163]")
"< 3000 nM"

---

Recorded GI50 for the following molecules
Test system: NCI-H226 cells
Assay Metric: GI50

>>> observed_value("C=CC(=O)NCc1ccc(Oc2ccc(C(F)(F)F)cn2)c2sc(C)nc12")
"< 0.1 µM"
>>> observed_value("C=CC(=O)NCc1ccc(Oc2ccc(C(F)(F)F)cn2)c2nc(C)oc12")
"< 0.1 µM"
>>> observed_value("C=CC(=O)NC1CC[C@@H](Oc2ccc(C(F)(F)F)cc2)c2nc(Cl)ccc21 (stereo in doubt)")
"< 0.1 µM"
>>> observed_value("C=CC(=O)NC1CCOc2nc(Oc3ccc(C(F)(F)F)cc3)ccc21 (stereo not drawn)")
"0.1 to 1 µM"
>>> observed_value("C=CC(=O)NCc1ccc(Oc2ccc(OC)cc2)c2nc(C)oc12")
"< 0.1 µM"
>>> observed_value("C=CC(=O)NCc1ccc(Oc2ccc(C(F)(F)F)cc2)c2nc(CC)oc12")
"< 0.1 µM"
>>> observed_value("C=CC(=O)NC1CCOc2c1ccc(Oc1ccc(C(F)(F)F)nc1)c2OC (stereo not drawn)")
"< 0.1 µM"
>>> observed_value("C=CC(=O)NCc1ccc(/C=C/c2ccc(C(F)(F)F)cc2)c2nc(C)oc12")
"0.1 to 1 µM"
>>> observed_value("O=C(/C=C/C(F)(F)F)NCc1ccc(Oc2ccc(Cl)cc2)c2ncccc12")
"0.1 to 1 µM"
>>> observed_value("C=CC(=O)NCc1nc2c(Oc3ccc(C(F)(F)F)cc3)cccc2o1")
"0.1 to 1 µM"
>>> observed_value("C=CC(=O)NCc1ccc(Oc2ccc(C(F)(F)F)nc2)c2sc(C)nc12")
"< 0.1 µM"
>>> observed_value("C=CC(=O)NCc1ccc(Oc2ccc(C(F)(F)F)cn2)c2nc(C)sc12")
"< 0.1 µM"
>>> observed_value("C=CC(=O)Nc1cncc(OCC2CCC(F)(F)CC2)c1")
"0.1 to 1 µM"
>>> observed_value("C=CC(=O)NC1CCCOc2cc(Oc3ccc(C(F)(F)F)cc3)ccc21 (stereo not drawn)")
"0.1 to 1 µM"
>>> observed_value("C=CC(=O)NCc1ccc(OC2CCCCC2)c2nc(C)oc12")
"< 0.1 µM"
>>> observed_value("C=CC(=O)NCc1ccc(Oc2ccc(C(F)(F)F)nc2)c2oc(C)nc12")
"< 0.1 µM"
>>> observed_value("C=CC(=O)NCc1cc(Oc2ccc(C(F)(F)F)cc2)c2ncccc2c1")
"< 0.1 µM"
>>> observed_value("C=CC(=O)N[C@@H]1CC[C@H](Oc2ccc(C(F)(F)F)cn2)c2nc(Cl)ccc21 (relative stereo)")
"< 0.1 µM"
>>> observed_value("C=CC(=O)N[C@@H]1CC[C@H](Oc2ccc(C(F)(F)F)cc2)c2nc(CC)ccc21 (relative stereo)")
"0.1 to 1 µM"
>>> observed_value("C=CC(=O)NCc1ccc(Oc2cnc(C(F)(F)F)nc2)c2ncccc12")
"0.1 to 1 µM"
>>> observed_value("C=CC(=O)N[C@@H]1CC[C@H](Oc2ccccc2)c2ncccc21 (relative stereo)")
"0.1 to 1 µM"
>>> observed_value("C=CC(=O)NCc1ccc(Oc2ccc(C(F)(F)F)cc2)c2nc(C)sc12")
"< 0.1 µM"
>>> observed_value("C=CC(=O)NC1COc2c(Oc3ccc(C(F)(F)F)cc3)cccc21 (stereo not drawn)")
"< 0.1 µM"
>>> observed_value("C=CC(=O)NCc1ccc(Oc2ccc(C(F)(F)F)c(F)c2)c2nc(C)oc12")
"< 0.1 µM"
>>> observed_value("C=CC(=O)NC1COc2cc(C)c(Oc3ccc(C(F)(F)F)cc3)cc21 (stereo not drawn)")
"0.1 to 1 µM"
>>> observed_value("C=CC(=O)NCc1ccc(Oc2ccc(C(F)(F)F)cc2)c2nc(C)oc12")
"< 0.1 µM"
>>> observed_value("C=CC(=O)NCc1ccc(Oc2ccc(C(F)(F)F)cc2)c2ncoc12")
"< 0.1 µM"
>>> observed_value("C=CC(=O)N[C@@H]1CC[C@H](Oc2ccc(C(F)(F)F)c(F)c2)c2nc(Cl)ccc21 (relative stereo)")
"< 0.1 µM"
>>> observed_value("C=CC(=O)NCc1ccc(Oc2ccc(C(F)(F)F)nc2)c2nc(CC)oc12")
"< 0.1 µM"
>>> observed_value("C=CC(=O)NCc1ccc(Oc2ccc(C(F)(F)F)nc2)c2nc(C)sc12")
"< 0.1 µM"
>>> observed_value("C=CC(=O)NCc1ccc(Nc2ccc(C(F)(F)F)cc2)c2nc(C)oc12")
"< 0.1 µM"
>>> observed_value("[H]/C=C/C(=O)NC1CCOc2c1ccc(Oc1ccc(C(F)(F)F)cc1)c2F (racemic)")
"< 0.1 µM"
>>> observed_value("C=CC(=O)NCc1nc2cc(Oc3ccc(C(F)(F)F)cc3)ccc2o1")
"0.1 to 1 µM"

---

Below are GI50 values measured for NCI-H226 cells.
Assay Metric: GI50

>>> observed_value("C=CC(=O)Nc1cncc(Oc2ccc(OC(C)C)nc2)c1 [Compound 110]")
"100 to 1000 nM"
>>> observed_value("C=CC(=O)N[C@@H]1CC[C@H](Oc2ccc(C(F)(F)F)cc2)c2nc(OC)ccc21 (relative stereo) [Compound 179]")
"< 100 nM"
>>> observed_value("C=CC(=O)NCc1ccc(Oc2ccc(C(F)(F)F)cn2)c2oc(C)nc12 [Compound 284]")
"< 100 nM"
>>> observed_value("C=CC(=O)NCc1ccc(Oc2ccc(C(F)(F)F)nc2)c2nc(C)oc12 [Compound 249]")
"< 100 nM"
>>> observed_value("C=CC(=O)NC1COc2ccc(Oc3ccc(C(F)(F)F)cc3)cc21 (centres unmarked) [Compound 262]")
"< 100 nM"
>>> observed_value("C=CC(=O)N[C@@H]1CC[C@H](Oc2cnc(Cl)c(Cl)c2)c2nc(Cl)ccc21 (relative stereo) [Compound 181]")
"100 to 1000 nM"
>>> observed_value("C=CC(=O)NCc1ccc(N(C)c2ccc(C(F)(F)F)cc2)c2nc(C)oc12 [Compound 269]")
"100 to 1000 nM"
>>> observed_value("C=CC(=O)NCc1ccc(Oc2ccc(C(F)(F)F)cc2)c2nc(C(F)(F)F)oc12 [Compound 248]")
"100 to 1000 nM"
>>> observed_value("C=CC(=O)NC1CC[C@H](Oc2ccc(Cl)cc2)c2nc(Cl)ccc21 (stereo in doubt) [Compound 70]")
"< 100 nM"
>>> observed_value("C=CC(=O)NC1CC[C@H](Oc2ccc(Cl)cc2)c2nc(OC)ccc21 (stereo in doubt) [Compound 71]")
"< 100 nM"
>>> observed_value("C=CC(=O)NCc1ccc(C(O)c2ccc(C(F)(F)F)cc2)c2nc(C)oc12 (centres unmarked) [Compound 268]")
"100 to 1000 nM"
>>> observed_value("C=CC(=O)NCc1ccc(Oc2ccc(C#N)cc2)c2nc(C)oc12 [Compound 278]")
"100 to 1000 nM"
>>> observed_value("C=CC(=O)NCc1ccc(Oc2ccc(C(F)(F)F)cc2)c2nc(-c3ccccc3)oc12 [Compound 246]")
"100 to 1000 nM"
>>> observed_value("C=CC(=O)NCc1ccc(CCc2ccc(C(F)(F)F)cc2)c2nc(C)oc12 [Compound 267]")
"100 to 1000 nM"
>>> observed_value("C=CC(=O)N[C@@H]1CC[C@H](Oc2ccc(Cl)c(Cl)c2)c2nc(Cl)ccc21 (relative stereo) [Compound 178]")
"< 100 nM"
>>> observed_value("C=CC(=O)NC1CC[C@@H](Oc2ccc(Cl)cc2)c2nc(OC)ccc21 (stereo in doubt) [Compound 81]")
"100 to 1000 nM"
>>> observed_value("C=CC(=O)NCc1ccc(Oc2ccc(C(F)(F)F)cc2)c2nc(C(C)C)oc12 [Compound 245]")
"< 100 nM"
>>> observed_value("C=CC(=O)NCc1ccc(Oc2ccc(C(F)(F)F)cc2)c2oc(C)nc12 [Compound 253]")
"< 100 nM"
>>> observed_value("C=CC(=O)NC1CC[C@H](Oc2cccc(Cl)c2)c2ncccc21 (stereo in doubt) [Compound 68]")
"< 100 nM"
>>> observed_value("C=CC(=O)NCc1ccc(Sc2ccc(C(F)(F)F)cc2)c2nc(C)oc12 [Compound 272]")
"< 100 nM"
>>> observed_value("C=CC(=O)N[C@@H]1CC[C@H](Oc2ccc(C(F)(F)F)cc2)c2nc(C3CC3)ccc21 (relative stereo) [Compound 185]")
"< 100 nM"
>>> observed_value("C=CC(=O)NC1COc2c(Br)cc(Oc3ccc(C(F)(F)F)cc3)cc21 (centres unmarked) [Compound 263]")
"< 100 nM"
>>> observed_value("C=CC(=O)NC1COc2cc(Oc3ccc(C(F)(F)F)cc3)ccc21 (centres unmarked) [Compound 265]")
"100 to 1000 nM"
>>> observed_value("C=CC(=O)N[C@@H]1CC[C@H](Oc2ccc(C(F)(F)F)cc2)c2nc(C)ccc21 (relative stereo) [Compound 184]")
"< 100 nM"
>>> observed_value("C=CC(=O)NCc1ccc(Oc2ccc(Cl)cc2)c2nc(C)oc12 [Compound 281]")
"< 100 nM"
>>> observed_value("C=CC(=O)NCc1ccc(Oc2ccc(C(F)(F)F)cn2)c2nc(CC)oc12 [Compound 252]")
"< 100 nM"
>>> observed_value("C=CC(=O)NCc1ccc(Oc2ccc(N(C)C)cc2)c2nc(C)oc12 [Compound 275]")
"100 to 1000 nM"
>>> observed_value("C=CC(=O)NCc1ccc(Oc2cccc(C(F)(F)F)c2)c2nc(C)oc12 [Compound 279]")
"< 100 nM"
>>> observed_value("C=CC(=O)NC1CC[C@H](Oc2ccc(C(F)(F)F)cc2)c2nc(Cl)ccc21 (stereo in doubt) [Compound 76]")
"< 100 nM"
>>> observed_value("C=CC(=O)NCc1ccc(Oc2ccc(C(F)(F)F)cc2)c2sc(C)nc12 [Compound 257]")
"< 100 nM"
>>> observed_value("[H]/C=C/C(=O)NC1CCOc2c1ccc(Oc1ccc(C(F)(F)F)cc1)c2OC (racemic) [Compound 33]")
"< 100 nM"
>>> observed_value("C=CC(=O)NCc1ccc(OCc2ccccc2)c2nc(C)oc12 [Compound 282]")
"< 100 nM"
